- target_or_system: FAAH in human bladder epithelial cancer-derived cell line 5678 cells (Homo sapiens)
- Construct: host or cells: human bladder epithelial cancer-derived cell line ('5678' [sic], HTB-9)
- method_description: Screening for FAAH activity-inhibiting substance with human bladder epithelial cancer-derived cell (IC50, Table 64)
- Format: cell-based
pIC50: −log10 of the molar value.
measurement_label: pIC50

1. Cc1ccc(OC(=O)N2CCC(Oc3ccc(OCc4cccc(F)c4)cc3)CC2)cn1 [Example 13] ... 9.57
2. N#Cc1cccc(CCC2CCN(C(=O)Oc3cncc(C(=O)NCCO)c3)CC2)c1 [Example 330] ... 9.28
3. O=C(Oc1cccnc1)N1CCC(c2cccc(OCCCc3ccccc3)c2)CC1 [Example 113] ... 10.25
4. NC(=O)c1cncc(OC(=O)N2CCC(CCc3ccc(-c4cccc(F)c4)cc3)CC2)c1 [Example 345] ... 9.74

====

- target_or_system: FAAH in human bladder epithelial cancer-derived cell line 5678 cells (Homo sapiens, UniProt O00519)
- Construct: host or cells: human bladder epithelial cancer-derived cell line ('5678' [sic], HTB-9)
- Sequence (O00519 whole entry): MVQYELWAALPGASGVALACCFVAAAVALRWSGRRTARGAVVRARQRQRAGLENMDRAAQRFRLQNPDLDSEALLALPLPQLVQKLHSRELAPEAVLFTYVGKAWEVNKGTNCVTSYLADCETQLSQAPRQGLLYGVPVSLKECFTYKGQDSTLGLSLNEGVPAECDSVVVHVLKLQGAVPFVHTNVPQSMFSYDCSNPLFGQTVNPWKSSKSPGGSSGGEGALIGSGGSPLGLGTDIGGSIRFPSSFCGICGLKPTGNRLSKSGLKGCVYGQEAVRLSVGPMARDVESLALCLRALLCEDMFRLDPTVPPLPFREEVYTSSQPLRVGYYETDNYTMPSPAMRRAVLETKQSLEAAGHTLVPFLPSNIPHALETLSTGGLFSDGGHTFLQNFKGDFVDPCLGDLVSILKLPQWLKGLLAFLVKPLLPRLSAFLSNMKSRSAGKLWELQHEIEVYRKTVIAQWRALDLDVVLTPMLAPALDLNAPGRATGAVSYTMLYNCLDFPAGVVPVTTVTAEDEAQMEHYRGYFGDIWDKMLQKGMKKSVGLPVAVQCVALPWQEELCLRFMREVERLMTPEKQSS
- method_description: Screening for FAAH activity-inhibiting substance with human bladder epithelial cancer-derived cell (IC50, Table 64)
- Format: cell-based
// boundary case: IC50 equal to 0.4 nM maps to f; strictly smaller maps to t

1) O=C(Oc1cccnc1)N1CCC(Sc2cccc(OCc3cccc(F)c3)c2)CC1 ... t
2) O=C(c1ccc(OCc2cccc(F)c2)cc1)C1CCN(C(=O)Oc2cccnc2)CC1 ... t
3) N#Cc1cccc(-c2cccc(CCC3CCN(C(=O)Oc4cncc(C(=O)O)c4)CC3)c2)c1 ... f
4) CN(C)C(=O)c1cccc(CCC2CCN(C(=O)Oc3cncc(C(N)=O)c3)CC2)c1 ... f
5) CC(=O)OCc1cncc(OC(=O)N2CCC(Oc3ccc(OCc4cccc(F)c4)cc3)CC2)c1 ... t
6) O=C(Oc1cccnc1)N1CCC(S(=O)(=O)c2ccc(OCc3cccc(F)c3)cc2)CC1 ... t
7) COc1cccc(CCC2CCN(C(=O)Oc3cncc(C(=O)NCCO)c3)CC2)c1 ... f
8) O=C(O)c1cncc(OC(=O)N2CCC(CCc3ccc(-c4ccccc4)cc3)CC2)c1 ... t

====

- target_or_system: FAAH in human bladder epithelial cancer-derived cell line 5678 cells (Homo sapiens, UniProt O00519)
- Construct: host or cells: human bladder epithelial cancer-derived cell line ('5678' [sic], HTB-9)
- method_description: Screening for FAAH activity-inhibiting substance with human bladder epithelial cancer-derived cell (IC50, Table 64)
- Type: cell-based
// boundary case: IC50 equal to 0.3 nM maps to 0 (no); strictly smaller maps to 1 (yes)

1. O=C(Oc1cccnc1)N1CCC(Oc2ccc(OCc3cccc(F)c3)cc2)CC1 ... 1 (yes)
2. CC(C)NC(=O)c1cccc(CCC2CCN(C(=O)Oc3cncc(C(N)=O)c3)CC2)c1 ... 0 (no)
3. O=C(Oc1cccnc1)N1CCN(C(=O)c2ccc(OCCc3cccc(Cl)c3)cc2)CC1 ... 0 (no)
4. NC(=O)c1cccc(-c2cncc(OC(=O)N3CCC(CCc4ccccc4)CC3)c2)c1 ... 0 (no)
5. O=C(O)C(=O)O.O=C(O)C1CCN(c2cncc(OC(=O)N3CCC(Oc4ccc(OCc5cccc(F)c5)cc4)CC3)c2)CC1 [Example 261, oxalate] ... 0 (no)
6. NC(=O)c1cncc(OC(=O)N2CCC(CCCC3CCN(c4ccc5ccccc5n4)CC3)CC2)c1 ... 0 (no)
7. O=C(O)c1cncc(OC(=O)N2CCC(CCc3cccc(-c4ccccc4)c3)CC2)c1 ... 1 (yes)
8. O=C(Oc1cccnc1)N1CCC(Oc2ccc(OCc3cccc(F)c3)cn2)CC1 ... 1 (yes)

Cited source: patent US7919495B2
